System: Mycobacterium avium subsp. paratuberculosis
procedure_details: Antituberculosis activity against Mycobacterium paratuberculosis JTC303 isolated from bovine assessed as minimum drug level required for killing after 56 days by MGIT 960 susceptibility test
Assay type: functional
measurement_name: Activity (µg/mL)
Only the number, expressed in µg/mL, is required.

Example cases with answers are listed next.
CC[C@H]1OC(=O)[C@H](C)[C@@H](O[C@H]2C[C@@](C)(OC)[C@@H](O)[C@H](C)O2)[C@H](C)[C@@H](O[C@@H]2O[C@H](C)C[C@H](N(C)C)[C@H]2O)[C@](C)(O)C[C@@H](C)CN(C)[C@H](C)[C@@H](O)[C@]1(C)O [AZITHROMYCIN] | 4
Sc1ncnc2nc[nH]c12 [MERCAPTOPURINE ANHYDROUS] | 32

Okay, now this molecule:
What Activity value was documented for this molecule, O=C(O)c1cn(C2CC2)c2cc(N3CCNCC3)c(F)cc2c1=O [CIPROFLOXACIN] ?
8

---

System: Mycobacterium avium subsp. paratuberculosis
procedure_details: Antituberculosis activity against Mycobacterium paratuberculosis UCF-4 isolated from Crohn's disease patient assessed as minimum drug level required for inhibition by MGIT 960 susceptibility test
Format: functional
Property: Activity; scope: individual compounds
Give the number first and the unit second.

What Activity value was documented for this compound, O=C(O)c1cn(C2CC2)c2cc(N3CCNCC3)c(F)cc2c1=O ?
1 µg/mL

What Activity value was documented for this compound, Sc1ncnc2nc[nH]c12 [MERCAPTOPURINE ANHYDROUS] ?
2 µg/mL

What Activity value was documented for this compound, CC[C@H]1OC(=O)[C@H](C)[C@@H](O[C@H]2C[C@@](C)(OC)[C@@H](O)[C@H](C)O2)[C@H](C)[C@@H](O[C@@H]2O[C@H](C)C[C@H](N(C)C)[C@H]2O)[C@](C)(O)C[C@@H](C)CN(C)[C@H](C)[C@@H](O)[C@]1(C)O ?
1 µg/mL

What Activity value was documented for this compound, Cn1cnc([N+](=O)[O-])c1Sc1ncnc2[nH]cnc12 ?
4 µg/mL

---

Test system: Mycobacterium avium subsp. paratuberculosis
procedure_details: Antituberculosis activity against Mycobacterium paratuberculosis JTC303 isolated from bovine assessed as minimum drug level required for inhibition by MGIT 960 susceptibility test
Assay type: functional
Property: Activity; scope: individual compounds
Only the number, expressed in µg/mL, is required.

O=C(O)c1cn(C2CC2)c2cc(N3CCNCC3)c(F)cc2c1=O | 2
CC[C@H]1OC(=O)[C@H](C)[C@@H](O[C@H]2C[C@@](C)(OC)[C@@H](O)[C@H](C)O2)[C@H](C)[C@@H](O[C@@H]2O[C@H](C)C[C@H](N(C)C)[C@H]2O)[C@](C)(O)C[C@@H](C)CN(C)[C@H](C)[C@@H](O)[C@]1(C)O | 1
Sc1ncnc2nc[nH]c12 [MERCAPTOPURINE ANHYDROUS] | 1

Okay, now this compound:
Record lookup: for Mycobacterium avium subsp. paratuberculosis, what Activity belongs to Cn1cnc([N+](=O)[O-])c1Sc1ncnc2[nH]cnc12 ?
2

---

Property: Activity; scope: individual compounds
Test system: Mycobacterium avium subsp. paratuberculosis
procedure_details: Antituberculosis activity against Mycobacterium paratuberculosis B238 isolated from bovine assessed as minimum drug level required for killing after 56 days by MGIT 960 susceptibility test
Format: functional
Only the number, expressed in µg/mL, is required.

O=C(O)c1cn(C2CC2)c2cc(N3CCNCC3)c(F)cc2c1=O | 16

Okay, now this compound:
What Activity value was documented for this compound, CC[C@H]1OC(=O)[C@H](C)[C@@H](O[C@H]2C[C@@](C)(OC)[C@@H](O)[C@H](C)O2)[C@H](C)[C@@H](O[C@@H]2O[C@H](C)C[C@H](N(C)C)[C@H]2O)[C@](C)(O)C[C@@H](C)CN(C)[C@H](C)[C@@H](O)[C@]1(C)O ?
1
